# assay-name: Plasma pharmacokinetics of rucaparib (LC-MS/MS, noncompartmental)
# stated-conditions: human, plasma, po, 120 mg, AUC0-24, single oral dose 120 mg, day –5; geometric mean (CV%)
recorded-metric: AUC(0-t) (ng·h/mL)
Value expressed in ng·h/mL; do not type the unit.

Query: Please report the recorded AUC(0-t) for CNCc1ccc(-c2[nH]c3cc(F)cc4c3c2CCNC4=O)cc1 [rucaparib] .
Response: 2920

---

# assay-name: Plasma pharmacokinetics of rucaparib (LC-MS/MS, noncompartmental)
# stated-conditions: human, plasma, iv, 27 mg, Cmax, single i.v. dose 27 mg, day –10; geometric mean (CV%)
recorded-metric: Cmax (ng/mL)
Give the quantity in ng/mL, number only.

Query: Any idea what Cmax was measured for CNCc1ccc(-c2[nH]c3cc(F)cc4c3c2CCNC4=O)cc1 ?
Response: 866
